Test system: Staphylococcus aureus S13E
Assay type: cell-based
In this section, each of the molecules is paired with its reported MIC.

{"molecule": "CNC(CC(C)C)C(=O)NC1C(=O)NC(CC(N)=O)C(=O)NC2C(=O)NC3C(=O)NC(C(=O)NC(C(=O)O)c4cc(O)cc(O)c4-c4cc3ccc4O)C(OC3CC(C)(N)C(O)C(C)O3)c3ccc(c(Cl)c3)Oc3cc2cc(c3OC2OC(CO)C(O)C(O)C2OC2CC(C)(NCc3cnc4ccccc4c3)C(O)C(C)O2)Oc2ccc(cc2Cl)C1O (stereo not drawn)", "MIC": "≤ 0.06 µg/mL"}

MIC of CNC(CC(C)C)C(=O)NC1C(=O)NC(CC(N)=O)C(=O)NC2C(=O)NC3C(=O)NC(C(=O)NC(C(=O)O)c4cc(O)cc(O)c4-c4cc3ccc4O)C(OC3CC(C)(N)C(O)C(C)O3)c3ccc(c(Cl)c3)Oc3cc2cc(c3OC2OC(CO)C(O)C(O)C2OC2CC(C)(NCCc3ccc(Oc4ccccc4)cc3)C(O)C(C)O2)Oc2ccc(cc2Cl)C1O (stereo not drawn) on Staphylococcus aureus S13E? ≤ 0.06 µg/mL

MIC of CNC(CC(C)C)C(=O)NC1C(=O)NC(CC(N)=O)C(=O)NC2C(=O)NC3C(=O)NC(C(=O)NC(C(=O)O)c4cc(O)cc(O)c4-c4cc3ccc4O)C(OC3CC(C)(N)C(O)C(C)O3)c3ccc(c(Cl)c3)Oc3cc2cc(c3OC2OC(CO)C(O)C(O)C2OC2CC(C)(NCc3ccc4ccccc4c3)C(O)C(C)O2)Oc2ccc(cc2Cl)C1O (stereo not drawn) on Staphylococcus aureus S13E? 0.125 µg/mL

* * *

In this section, each of the compounds is paired with its reported mean geometric MIC, Vancomycin Sensitive Strains.
Tested on: vancomycin-susceptible enterococci
Assay: broth micro-dilution, mean geometric MIC
Assay type: cell-based, Enterococcus faecium and Enterococcus faecalis
Settings: enterococci, 24-hour incubation
Please reply with the bare figure in µg/mL and do not write the unit itself.

Worked examples follow.
{"compound": "CN[C@H](CC(C)C)C(=O)N[C@H]1C(=O)N[C@@H](CC(N)=O)C(=O)N[C@H]2C(=O)N[C@H]3C(=O)N[C@H](C(=O)N[C@H](C(=O)O)c4cc(O)cc(O)c4-c4cc3ccc4O)[C@H](O[C@H]3C[C@](C)(N)[C@@H](O)[C@H](C)O3)c3ccc(c(Cl)c3)Oc3cc2cc(c3O[C@@H]2O[C@H](CO)[C@@H](O)[C@H](O)[C@H]2O[C@H]2C[C@](C)(NCc3ccc(Oc4ccc(C)cc4)cc3)[C@@H](O)[C@H](C)O2)Oc2ccc(cc2Cl)[C@H]1O [Compound 95]", "target": "vancomycin-susceptible enterococci", "experimental.value": 0.054}
{"compound": "CCN(CC)CCOc1ccc(CNC2(C)CC(OC3C(Oc4c5cc6cc4Oc4ccc(cc4Cl)C(OC4CC(C)(N)C(O)C(C)O4)C4NC(=O)C(NC(=O)C6NC(=O)C(CC(N)=O)NC(=O)C(NC(=O)C(CC(C)C)NC)C(O)c6ccc(c(Cl)c6)O5)c5ccc(O)c(c5)-c5c(O)cc(O)cc5C(C(=O)O)NC4=O)OC(CO)C(O)C3O)OC(C)C2O)cc1 (stereo not drawn) [Compound 83]", "target": "vancomycin-susceptible enterococci", "experimental.value": 1.7}
{"compound": "CNC(CC(C)C)C(=O)NC1C(=O)NC(CC(N)=O)C(=O)NC2C(=O)NC3C(=O)NC(C(=O)NC(C(=O)O)c4cc(O)cc(O)c4-c4cc3ccc4O)C(OC3CC(C)(N)C(O)C(C)O3)c3ccc(c(Cl)c3)Oc3cc2cc(c3OC2OC(CO)C(O)C(O)C2OC2CC(C)(NCc3ccc(OC4CCCCC4)cc3)C(O)C(C)O2)Oc2ccc(cc2Cl)C1O (stereo not drawn) [Compound 124]", "target": "vancomycin-susceptible enterococci", "experimental.value": 0.047}

Would you kindly share the measured mean geometric MIC, Vancomycin Sensitive Strains for CNC(CC(C)C)C(=O)NC1C(=O)NC(CC(N)=O)C(=O)NC2C(=O)NC3C(=O)NC(C(=O)NC(C(=O)O)c4cc(O)cc(O)c4-c4cc3ccc4O)C(OC3CC(C)(N)C(O)C(C)O3)c3ccc(c(Cl)c3)Oc3cc2cc(c3OC2OC(CO)C(O)C(O)C2OC2CC(C)(NCCCCCCCCCCc3ccccc3)C(O)C(C)O2)Oc2ccc(cc2Cl)C1O (stereo not drawn) [Compound 197] ? 0.16

Would you kindly share the measured mean geometric MIC, Vancomycin Sensitive Strains for CNC(CC(C)C)C(=O)NC1C(=O)NC(CC(N)=O)C(=O)NC2C(=O)NC3C(=O)NC(C(=O)NC(C(=O)O)c4cc(O)cc(O)c4-c4cc3ccc4O)C(OC3CC(C)(N)C(O)C(C)O3)c3ccc(c(Cl)c3)Oc3cc2cc(c3OC2OC(CO)C(O)C(O)C2OC2CC(C)(NCc3ccc(-c4cccc(C)c4)cc3)C(O)C(C)O2)Oc2ccc(cc2Cl)C1O (stereo not drawn) [Compound 224] ? 0.055

Would you kindly share the measured mean geometric MIC, Vancomycin Sensitive Strains for CC(C)CC(C(=O)NC1C(=O)NC(CC(N)=O)C(=O)NC2C(=O)NC3C(=O)NC(C(=O)NC(C(=O)O)c4cc(O)cc(O)c4-c4cc3ccc4O)C(OC3CC(C)(N)C(O)C(C)O3)c3ccc(c(Cl)c3)Oc3cc2cc(c3OC2OC(CO)C(O)C(O)C2OC2CC(C)(NCc3ccc4c(c3)CCCC4)C(O)C(C)O2)Oc2ccc(cc2Cl)C1O)N(C)Cc1ccc2c(c1)CCCC2 (stereo not drawn) [Compound 258] ? 1

* * *

In this section, each of the compounds is paired with its reported MIC.
Test system: Staphylococcus aureus S13E
Type: cell-based
Please reply with the bare figure in µg/mL and do not write the unit itself.

{"compound": "CNC(CC(C)C)C(=O)NC1C(=O)NC(CC(N)=O)C(=O)NC2C(=O)NC3C(=O)NC(C(=O)NC(C(=O)O)c4cc(O)cc(O)c4-c4cc3ccc4O)C(OC3CC(C)(N)C(O)C(C)O3)c3ccc(c(Cl)c3)Oc3cc2cc(c3OC2OC(CO)C(O)C(O)C2OC2CC(C)(NCCCCC3CCCCC3)C(O)C(C)O2)Oc2ccc(cc2Cl)C1O (stereo not drawn)", "experimental.value": 0.5}

Continue with the next compound.
Would you kindly share the measured MIC for CC(C)CC(C(=O)NC1C(=O)NC(CC(N)=O)C(=O)NC2C(=O)NC3C(=O)NC(C(=O)NC(C(=O)O)c4cc(O)cc(O)c4-c4cc3ccc4O)C(OC3CC(C)(N)C(O)C(C)O3)c3ccc(c(Cl)c3)Oc3cc2cc(c3OC2OC(CO)C(O)C(O)C2OC2CC(C)(NCc3ccc(Cc4ccccc4)cc3)C(O)C(C)O2)Oc2ccc(cc2Cl)C1O)N(C)Cc1ccc(Cc2ccccc2)cc1 (stereo not drawn) ? 2

* * *

Tested on: Staphylococcus aureus SA1199B
Format: cell-based
In this section, each of the compounds is paired with its reported MIC.
Please reply with the bare figure in µg/mL and do not write the unit itself.

{"compound": "CNC(CC(C)C)C(=O)NC1C(=O)NC(CC(N)=O)C(=O)NC2C(=O)NC3C(=O)NC(C(=O)NC(C(=O)O)c4cc(O)cc(O)c4-c4cc3ccc4O)C(OC3CC(C)(N)C(O)C(C)O3)c3ccc(c(Cl)c3)Oc3cc2cc(c3OC2OC(CO)C(O)C(O)C2OC2CC(C)(NCc3ccc4c(c3)CCO4)C(O)C(C)O2)Oc2ccc(cc2Cl)C1O (stereo not drawn)", "MIC / µg/mL": 1}
{"compound": "CNC(CC(C)C)C(=O)NC1C(=O)NC(CC(N)=O)C(=O)NC2C(=O)NC3C(=O)NC(C(=O)NC(C(=O)O)c4cc(O)cc(O)c4-c4cc3ccc4O)C(OC3CC(C)(N)C(O)C(C)O3)c3ccc(c(Cl)c3)Oc3cc2cc(c3OC2OC(CO)C(O)C(O)C2OC2CC(C)(NCc3ccc(CCc4ccccc4)cc3)C(O)C(C)O2)Oc2ccc(cc2Cl)C1O (stereo not drawn)", "MIC / µg/mL": 0.5}
{"compound": "CNC(CC(C)C)C(=O)NC1C(=O)NC(CC(N)=O)C(=O)NC2C(=O)NC3C(=O)NC(C(=O)NC(C(=O)O)c4cc(O)cc(O)c4-c4cc3ccc4O)C(OC3CC(C)(N)C(O)C(C)O3)c3ccc(c(Cl)c3)Oc3cc2cc(c3OC2OC(CO)C(O)C(O)C2OC2CC(C)(NCc3ccc(-c4ccccc4)s3)C(O)C(C)O2)Oc2ccc(cc2Cl)C1O (stereo not drawn)", "MIC / µg/mL": 1}

Continue with the next compound.
Would you kindly share the measured MIC for CC(C)CC(C(=O)NC1C(=O)NC(CC(N)=O)C(=O)NC2C(=O)NC3C(=O)NC(C(=O)NC(C(=O)O)c4cc(O)cc(O)c4-c4cc3ccc4O)C(OC3CC(C)(N)C(O)C(C)O3)c3ccc(c(Cl)c3)Oc3cc2cc(c3OC2OC(CO)C(O)C(O)C2OC2CC(C)(NCc3ccc(Oc4ccc([N+](=O)[O-])cc4)cc3)C(O)C(C)O2)Oc2ccc(cc2Cl)C1O)N(C)Cc1ccc(Oc2ccc([N+](=O)[O-])cc2)cc1 (stereo not drawn) ? 1
